Target entity: estrogen receptor alpha (ERalpha) (Homo sapiens, UniProt P03372)
Sequence (P03372 whole entry): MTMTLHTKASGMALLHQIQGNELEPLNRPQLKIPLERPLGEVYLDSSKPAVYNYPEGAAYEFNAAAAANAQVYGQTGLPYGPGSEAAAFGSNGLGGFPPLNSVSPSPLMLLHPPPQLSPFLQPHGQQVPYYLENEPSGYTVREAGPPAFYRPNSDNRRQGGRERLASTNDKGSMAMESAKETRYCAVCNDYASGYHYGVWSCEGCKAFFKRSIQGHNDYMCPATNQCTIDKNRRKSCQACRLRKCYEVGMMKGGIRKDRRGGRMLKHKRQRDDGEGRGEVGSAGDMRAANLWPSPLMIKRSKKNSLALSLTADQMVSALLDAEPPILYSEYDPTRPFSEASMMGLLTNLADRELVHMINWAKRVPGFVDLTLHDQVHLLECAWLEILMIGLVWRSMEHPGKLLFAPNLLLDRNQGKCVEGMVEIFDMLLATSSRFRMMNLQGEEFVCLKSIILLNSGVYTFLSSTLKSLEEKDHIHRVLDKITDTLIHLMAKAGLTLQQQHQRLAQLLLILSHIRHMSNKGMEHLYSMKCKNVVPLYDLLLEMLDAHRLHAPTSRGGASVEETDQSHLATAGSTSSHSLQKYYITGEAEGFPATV
Test protocol: Estrogen-R (α) competitor screening kit, ligand binding screen
Test settings: ER alpha competitor binding; non-linear regression, one site competition
pIC50: −log10 of the molar value.
Measurement label: pIC50

Examples with answers:
- Compound: "COc1cc(C[C@H]2COC(=O)[C@@H]2Cc2ccc(O)c(O)c2)ccc1O"
  Target entity: "estrogen receptor alpha (ERalpha) (Homo sapiens, UniProt P03372)"
  pIC50: 2.72
- Compound: "O=C1OC[C@H](Cc2ccc(O)c(O)c2)[C@H]1Cc1ccc(O)c(O)c1 [Compound 1, (−)-dihydroxyenterolactone]"
  Target entity: "estrogen receptor alpha (ERalpha) (Homo sapiens, UniProt P03372)"
  pIC50: 2.80
- Compound: "COc1ccc(C[C@H]2COC(=O)[C@@H]2Cc2ccc(O)c(O)c2)cc1O"
  Target entity: "estrogen receptor alpha (ERalpha) (Homo sapiens, UniProt P03372)"
  pIC50: 2.60

a: COc1ccc(C[C@H]2COC(=O)[C@@H]2Cc2ccc(O)c(O)c2)cc1OC
b: COc1cc(C[C@H]2C(=O)OC[C@@H]2Cc2ccc(O)c(O)c2)ccc1O
Prompt line: Of a and b , whose reported pIC50 is the larger number? Record your answer as the label of the chosen record.
Response line: b
(b: 3.10, a: 2.60)

* * *

Target entity: estrogen receptor alpha (ERalpha) (Homo sapiens, UniProt P03372)
Construct: purchased Wako Chemicals (Osaka, Japan)
Test protocol: Estrogen-R (α) competitor screening kit, ligand binding screen
Test settings: IC50 of estradiol divided by IC50 of the tested compound, multiplied by 100; Estradiol = 100
compounds and their reported RBA (Relative binding affinity)

// known answers, use as guide
- Compound: "COc1ccc(C[C@H]2COC(=O)[C@@H]2Cc2ccc(O)c(O)c2)cc1O"
  Target entity: "estrogen receptor alpha (ERalpha) (Homo sapiens, UniProt P03372)"
  RBA (Relative binding affinity): "7.9 × 10^−4"
- Compound: "COc1cc(C[C@H]2COC(=O)[C@@H]2Cc2ccc(O)c(O)c2)ccc1O"
  Target entity: "estrogen receptor alpha (ERalpha) (Homo sapiens, UniProt P03372)"
  RBA (Relative binding affinity): "1.0 × 10^−3"
- Compound: "COc1ccc(C[C@H]2COC(=O)[C@@H]2Cc2ccc(O)c(O)c2)cc1OC"
  Target entity: "estrogen receptor alpha (ERalpha) (Homo sapiens, UniProt P03372)"
  RBA (Relative binding affinity): "7.9 × 10^−4"
- Compound: "COc1cc(C[C@H]2C(=O)OC[C@@H]2Cc2ccc(O)c(O)c2)ccc1O"
  Target entity: "estrogen receptor alpha (ERalpha) (Homo sapiens, UniProt P03372)"
  RBA (Relative binding affinity): "2.5 × 10^−3"

Prompt line: Please look up its RBA (Relative binding affinity): O=C1OC[C@H](Cc2ccc(O)c(O)c2)[C@H]1Cc1ccc(O)c(O)c1 [Compound 1, (−)-dihydroxyenterolactone]
Response line: 1.2 × 10^−3

* * *

Target entity: estrogen receptor alpha (ERalpha) (Homo sapiens, UniProt P03372)
Construct: purchased Wako Chemicals (Osaka, Japan)
Test protocol: Estrogen-R (α) competitor screening kit, ligand binding screen
Test settings: compound at 10^−5 M; mean ± S.E.M., n = 4; percentage of the negative control (labeled estrogen mixture)
Measurement label: % Binding to ERα (%)

- Compound: "COc1cc(C[C@H]2COC(=O)[C@@H]2Cc2ccc(O)c(OC)c2)ccc1O [Compound 5, (−)-matairesinol]"
  Target entity: "estrogen receptor alpha (ERalpha) (Homo sapiens, UniProt P03372)"
  Unit label: "%"
  % Binding to ERα: 0.4

A: COc1ccc(C[C@H]2COC(=O)[C@@H]2Cc2ccc(O)c(O)c2)cc1O
B: COc1ccc(C[C@H]2COC(=O)[C@@H]2Cc2ccc(O)c(OC)c2)cc1O
C: COc1cc(C[C@H]2COC(=O)[C@@H]2Cc2ccc(O)c(O)c2)ccc1O
D: O=C1OC[C@H](Cc2ccc(O)c(O)c2)[C@H]1Cc1ccc(O)c(O)c1 [Compound 1, (−)-dihydroxyenterolactone]
Prompt line: Order each entry by recorded % Binding to ERα, climbing from the minimum. Could you list the labels in the order requested?
Response line: A, C, B, D

FYI, the data here is from paper PMC6269892.
